- method_summary: DHE quenching or ROS scavenging interference in aged yeast, artefact control for yeast caloric restriction mimetic project, S. cerevisiae BY4741, flow cytometry (AID 435000);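 further: percent of the mean fluorescence averaged over all compound wells on the plate; lower means stronger quenching of DHE signal or ROS scavenging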
- particulars: at 10 µM, stronger effect = lower value
Some of the results follow.
measurement_label: fluorescence response (%)

smiles_text: COc1cc(-c2nnn(CC(=O)NCc3ccccc3)n2)cc(OC)c1OC
value_observed: 99.2
//
smiles_text: CC(C)NC(=O)/C(C#N)=C\c1ccc(N(C)C)c(Br)c1
value_observed: 92.3
//
smiles_text: CCN(CC)c1ccc(NC(=O)CN2CCN(c3ccccn3)CC2)cc1
value_observed: 95.7
//
smiles_text: CN1CCN(c2cc3c(cc2F)c(=O)c(C(=O)O)cn3CCF)CC1
value_observed: 100

###

- method_summary: DHE quenching or ROS scavenging interference in aged yeast, artefact control for yeast caloric restriction mimetic project, S. cerevisiae BY4741, flow cytometry (AID 435000);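 further: percent of the mean fluorescence averaged over all compound wells on the plate; lower means stronger quenching of DHE signal or ROS scavenging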
- particulars: at 10 µM, stronger effect = lower value
The other results are listed elsewhere or left out.
Reported fluorescence response by item:
measurement_label: fluorescence response (%)

molecule: Cc1ccc(C23CC4CC(CC(C(=O)NCC(=O)O)(C4)C2)C3)cc1
units: %
value_observed: 94.6
//
molecule: Cc1cc(C(F)F)n2nc(C(=O)Nc3ccc(S(=O)(=O)NC45CC6CC(CC(C6)C4)C5)cc3)nc2n1
units: %
value_observed: 104
//
molecule: CC(C)(C)NC(=O)COc1ccc(CNc2ccc3[nH]c(=O)[nH]c3c2)cc1
units: %
value_observed: 94.4
//
molecule: CNC(=O)c1cccc2nc3ccccc3nc12
units: %
value_observed: 105
//
molecule: Cc1ccc(-c2nn(C(C)(C)C)c3ncnc(N)c23)cc1
units: %
value_observed: 99.5
//
molecule: O=[N+]([O-])c1ccc2c(c1)Nc1nc3ccccc3nc1N2
units: %
value_observed: 92.7
//
molecule: O=C(CSc1ccc(-c2ccc(-n3cccn3)cc2)nn1)Nc1ccc([N+](=O)[O-])cc1
units: %
value_observed: 88.8
//
molecule: O=C(Nc1ccc(Br)cn1)c1ccc([N+](=O)[O-])cc1Cl
units: %
value_observed: 94
//
molecule: COc1ccc(CCNC(=O)c2ccccc2-c2ccccc2C(=O)O)cc1OC
units: %
value_observed: 110
//
molecule: O=C(O)C1CCCN1S(=O)(=O)c1ccc(Br)cc1 (stereo not drawn)
units: %
value_observed: 90.2
//
molecule: CSc1ncc(Cl)c(C(=O)Nc2cc(C)ccc2C)n1
units: %
value_observed: 95.1
//
molecule: COc1cccc(NC(=O)NCCN2CCCCC2)c1
units: %
value_observed: 93.8
//
molecule: CCCC(C)C(=O)OCC(=O)Nc1c(Br)cc(C)cc1Br (stereo not drawn)
units: %
value_observed: 89.1
//
molecule: O=C(O)c1ccc(F)c(S(=O)(=O)Nc2ccccc2)c1
units: %
value_observed: 90.9
//
molecule: Cc1ccc(-c2nc(CS(=O)CC(=O)N3CCN(c4ncccn4)CC3)c(C)o2)cc1 (stereo not drawn)
units: %
value_observed: 95.7
//
molecule: Cc1ccc(-c2nnc(Nc3ccc(C(=O)N(C)C)cc3)c3ccccc23)cc1S(N)(=O)=O
units: %
value_observed: 113
//
molecule: Cc1cc2oc(C(=O)Nc3c(C)n(C)n(-c4ccccc4)c3=O)c(C)c2cc1Cl
units: %
value_observed: 95.3
//
molecule: O=C(Nc1cccc(Cl)c1Cl)c1ccccc1NC(=O)C1CC=CCC1C(=O)O (stereo not drawn)
units: %
value_observed: 89.9
